These entries and their values trace back to patent US20240043504A1.

# SYSTEM_UNDER_TEST: T1, MERS-CoV Spike Protein S2 (aa 726-1296, His Tag) (Sino 40070-[change]) (MERS-CoV, UniProt K9N5Q8 726-1296)
# T1 sequence: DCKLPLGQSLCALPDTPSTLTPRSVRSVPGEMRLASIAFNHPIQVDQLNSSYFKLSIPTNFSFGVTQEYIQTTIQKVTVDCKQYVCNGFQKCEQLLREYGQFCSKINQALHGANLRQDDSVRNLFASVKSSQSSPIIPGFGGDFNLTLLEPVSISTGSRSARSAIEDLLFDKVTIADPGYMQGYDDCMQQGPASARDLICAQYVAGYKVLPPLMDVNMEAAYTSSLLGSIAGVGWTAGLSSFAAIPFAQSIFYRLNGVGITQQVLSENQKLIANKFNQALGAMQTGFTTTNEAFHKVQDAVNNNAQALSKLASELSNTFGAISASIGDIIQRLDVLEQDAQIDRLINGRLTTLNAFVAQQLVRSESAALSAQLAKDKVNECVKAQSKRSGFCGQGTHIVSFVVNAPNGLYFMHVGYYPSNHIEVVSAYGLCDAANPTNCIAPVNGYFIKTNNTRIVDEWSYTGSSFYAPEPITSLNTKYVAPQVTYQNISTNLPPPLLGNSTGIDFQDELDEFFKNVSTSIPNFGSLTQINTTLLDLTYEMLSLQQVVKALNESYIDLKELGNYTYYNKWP
# PROCEDURE_DETAILS: Luminex, supernatant
PROPERTY_LABEL: MFI (MFI)
Form entry: value (MFI) — number only.

GET /value?item= mAb10986 (antibody, V domains shown) VH: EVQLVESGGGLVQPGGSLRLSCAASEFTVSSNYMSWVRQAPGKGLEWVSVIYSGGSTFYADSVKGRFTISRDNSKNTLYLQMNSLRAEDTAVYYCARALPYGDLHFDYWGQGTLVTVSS VL: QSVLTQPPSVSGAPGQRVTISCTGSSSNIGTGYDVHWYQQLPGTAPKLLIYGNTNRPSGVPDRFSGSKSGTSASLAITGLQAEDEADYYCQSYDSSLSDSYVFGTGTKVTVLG &field=MFI returns 19

# MFI of mAb10921 (antibody, V domains shown) VH: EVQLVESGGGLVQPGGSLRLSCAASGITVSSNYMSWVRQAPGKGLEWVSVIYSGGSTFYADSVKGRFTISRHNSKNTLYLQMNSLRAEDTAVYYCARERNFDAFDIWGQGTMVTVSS VL: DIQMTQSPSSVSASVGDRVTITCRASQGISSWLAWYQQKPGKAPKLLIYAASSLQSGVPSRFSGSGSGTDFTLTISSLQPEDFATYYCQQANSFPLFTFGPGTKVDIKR = 19

Form field MFI, entry mAb10984 (antibody, V domains shown) VH: EVQLVESGGGLVQPGGSLRLSCAASGLTVNRNYMSWVRQAPGKGLEWVSLIYSGGSTYYADSVKGRFTISRDNSKNTLYLQMNSLRLEDTAVYYCARGELGIPYGMDVWGQGTTVTVSS VL: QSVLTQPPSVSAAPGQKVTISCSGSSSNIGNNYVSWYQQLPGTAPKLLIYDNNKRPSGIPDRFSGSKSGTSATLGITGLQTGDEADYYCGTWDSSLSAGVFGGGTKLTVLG : 25
